- TEST_PROTOCOL: Displacement of [3H]CNQX from AMPA receptor in rat brain homogenate
- Type: tissue-based
Reported IC50 maps to class as: lo (below 2 µM), mid (2 µM to below 5 µM), hi (5 µM or more)

MOL_SMILES | GROUP_LABEL
O=c1[nH]c2cc(Cl)ccc2c(=O)n1NS(=O)(=O)Cc1ccccc1 | mid
CS(=O)(=O)Nn1c(=O)[nH]c2ccccc2c1=O | hi
CCc1ccc2c(=O)n(NS(C)(=O)=O)c(=O)[nH]c2c1 | mid

For the record "CS(=O)(=O)Nn1c(=O)[nH]c2cc(C#N)ccc2c1=O" , report the class its IC50 corresponds to. lo

For the record "CS(=O)(=O)Nn1c(=O)[nH]c2ccc(Cl)cc2c1=O" , report the class its IC50 corresponds to. hi
